For each of the binders below, state its pKd.
TARGET_DESC: T1, hu-M-IL1RAP construct, positions S21-T367 (extracellular domain of the membrane form of human IL1RAP) (human, UniProt Q9NPH3 21-367)
T1 construct: Biotinylated when captured on the Biacore chip
T1 sequence: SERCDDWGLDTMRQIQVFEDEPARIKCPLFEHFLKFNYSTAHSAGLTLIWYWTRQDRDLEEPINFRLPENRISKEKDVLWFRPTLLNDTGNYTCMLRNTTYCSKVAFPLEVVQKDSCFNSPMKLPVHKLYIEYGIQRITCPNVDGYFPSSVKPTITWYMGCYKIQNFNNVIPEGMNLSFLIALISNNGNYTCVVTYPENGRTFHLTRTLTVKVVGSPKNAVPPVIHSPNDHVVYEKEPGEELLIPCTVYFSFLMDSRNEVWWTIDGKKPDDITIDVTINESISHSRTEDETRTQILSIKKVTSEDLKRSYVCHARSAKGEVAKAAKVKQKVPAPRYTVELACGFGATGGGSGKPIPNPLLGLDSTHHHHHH
EXPERIMENT_SUMMARY: SPR, Fab analyte, 25 C
Numbers only, as −log10 of the molar value.

I need pKd for every entry listed below, if you could help.
1. K6 Fab (VL Y30W/W92F) (Fab, V domains shown, Fab with 8xHis tag) VH: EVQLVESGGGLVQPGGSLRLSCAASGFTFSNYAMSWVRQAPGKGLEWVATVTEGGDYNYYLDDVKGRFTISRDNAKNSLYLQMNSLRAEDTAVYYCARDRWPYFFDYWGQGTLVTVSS VL: DIQMTQSPSSLSASVGDRVTITCRASENIWSNLAWYQQKPGKSPKLLVYGAKNLADGVPSRFSGSGSGTDYTLTISSLQPEDFATYYCQHFFTTPRTFGGGTKVEIK
2. K13 Fab (VL A51Y/W92I) (Fab, V domains shown, Fab with 8xHis tag) VH: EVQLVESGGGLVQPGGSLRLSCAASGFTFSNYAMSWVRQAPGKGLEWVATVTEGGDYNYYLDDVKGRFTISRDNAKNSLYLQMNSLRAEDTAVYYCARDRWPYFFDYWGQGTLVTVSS VL: DIQMTQSPSSLSASVGDRVTITCRASENIYSNLAWYQQKPGKSPKLLVYGYKNLADGVPSRFSGSGSGTDYTLTISSLQPEDFATYYCQHFITTPRTFGGGTKVEIK
3. H6 Fab (VH R96Q) (Fab, V domains shown, Fab with 8xHis tag) VH: EVQLVESGGGLVQPGGSLRLSCAASGFTFSNYAMSWVRQAPGKGLEWVATVTEGGDYNYYLDDVKGRFTISRDNAKNSLYLQMNSLRAEDTAVYYCARDQWPYFFDYWGQGTLVTVSS VL: DIQMTQSPSSLSASVGDRVTITCRASENIYSNLAWYQQKPGKSPKLLVYGAKNLADGVPSRFSGSGSGTDYTLTISSLQPEDFATYYCQHFWTTPRTFGGGTKVEIK
4. K5 Fab (VL Y30W/W92L) (Fab, V domains shown, Fab with 8xHis tag) VH: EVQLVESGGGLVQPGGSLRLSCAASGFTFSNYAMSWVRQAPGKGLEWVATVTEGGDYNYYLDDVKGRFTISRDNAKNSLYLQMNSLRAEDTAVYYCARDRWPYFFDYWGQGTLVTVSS VL: DIQMTQSPSSLSASVGDRVTITCRASENIWSNLAWYQQKPGKSPKLLVYGAKNLADGVPSRFSGSGSGTDYTLTISSLQPEDFATYYCQHFLTTPRTFGGGTKVEIK
5. K8 Fab (VL A51L) (Fab, V domains shown, Fab with 8xHis tag) VH: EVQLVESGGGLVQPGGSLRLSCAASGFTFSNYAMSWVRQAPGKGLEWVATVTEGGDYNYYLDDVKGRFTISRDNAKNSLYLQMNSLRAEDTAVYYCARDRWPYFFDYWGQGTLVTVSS VL: DIQMTQSPSSLSASVGDRVTITCRASENIYSNLAWYQQKPGKSPKLLVYGLKNLADGVPSRFSGSGSGTDYTLTISSLQPEDFATYYCQHFWTTPRTFGGGTKVEIK

Result:
1. 10.83
2. 11.15
3. 10.33
4. 10.28
5. 10.88
